assay: LD50 i.p. in mice; conditions: mouse, in vivo, ip
parameter_measured: LD50 (mg/kg)

• NC[C@H]1[C@H]2CN3C(=O)c4cccn4[C@H]4N=C(N)NC43[C@H]2[C@@]2(N=C(N)N[C@@H]2O)[C@@H]1Cl (stereo partly shown) = 13
